Molecular target: TYK2 (Homo sapiens, UniProt P29597)
Sequence (P29597 whole entry): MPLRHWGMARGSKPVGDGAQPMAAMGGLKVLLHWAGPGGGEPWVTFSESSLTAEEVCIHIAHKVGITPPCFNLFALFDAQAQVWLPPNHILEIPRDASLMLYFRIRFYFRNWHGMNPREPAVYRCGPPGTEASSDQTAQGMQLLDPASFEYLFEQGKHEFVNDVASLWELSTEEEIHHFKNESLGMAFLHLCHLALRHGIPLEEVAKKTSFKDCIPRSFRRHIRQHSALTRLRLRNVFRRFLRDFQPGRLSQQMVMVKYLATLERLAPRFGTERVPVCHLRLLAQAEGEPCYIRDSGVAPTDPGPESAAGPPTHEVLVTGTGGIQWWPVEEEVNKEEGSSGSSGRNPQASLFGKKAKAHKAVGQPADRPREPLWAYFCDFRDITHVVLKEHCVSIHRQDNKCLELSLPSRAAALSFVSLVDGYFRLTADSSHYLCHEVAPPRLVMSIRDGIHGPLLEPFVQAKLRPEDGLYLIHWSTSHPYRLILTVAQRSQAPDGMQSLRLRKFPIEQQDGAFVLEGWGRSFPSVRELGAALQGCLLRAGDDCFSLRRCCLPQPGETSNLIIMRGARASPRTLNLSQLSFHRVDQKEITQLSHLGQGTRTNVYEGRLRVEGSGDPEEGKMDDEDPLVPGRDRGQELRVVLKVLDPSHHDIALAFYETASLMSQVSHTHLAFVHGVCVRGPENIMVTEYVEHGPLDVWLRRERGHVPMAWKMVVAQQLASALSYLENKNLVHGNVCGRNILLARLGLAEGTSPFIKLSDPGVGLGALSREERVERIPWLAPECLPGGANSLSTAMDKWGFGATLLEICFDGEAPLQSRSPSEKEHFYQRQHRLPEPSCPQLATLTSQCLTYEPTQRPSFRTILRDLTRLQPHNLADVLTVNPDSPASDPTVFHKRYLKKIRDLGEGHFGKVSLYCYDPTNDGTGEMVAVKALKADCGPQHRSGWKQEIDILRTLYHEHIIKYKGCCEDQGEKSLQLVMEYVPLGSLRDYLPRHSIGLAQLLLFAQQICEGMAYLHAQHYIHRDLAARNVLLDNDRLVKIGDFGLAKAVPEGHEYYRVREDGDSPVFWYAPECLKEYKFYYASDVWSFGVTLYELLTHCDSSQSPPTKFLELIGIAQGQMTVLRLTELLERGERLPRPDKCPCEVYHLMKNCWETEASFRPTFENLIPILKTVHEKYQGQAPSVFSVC
Experiment: TYK2 kinase inhibition (Table A1)
Assay type: biochemical
Conditions: Table B1
Classify: satisfied when IC50 is strictly less than 300 nM; not satisfied when IC50 is not.

// below: answered molecules
• Clc1cnc2nc1Nc1cc(cc(CN3CCN(Cc4ccc(Oc5ncccn5)cc4)CC3)c1)CCc1cccc(c1)N2 [Example B193, tris(trifluoroacetate)] = not satisfied
• Cc1noc(C)c1C(=O)N1CC[C@H](NC(=O)Nc2ccc3cc2CCc2cncc(c2)Nc2ncc(Cl)c(n2)N3)C1 [Example B274, bis(trifluoroacetate)] = not satisfied
• Clc1cnc2nc1Nc1ccc(CN[C@H]3CCNC3)c(c1)CCc1cccc(c1)N2 [Example B223, tris(trifluoroacetate)] = satisfied
• O=C(Nc1ccc2cc1CCc1cncc(c1)Nc1ncc(Cl)c(n1)N2)N1CCN(c2ccc(Cl)cc2)CC1 [Example B307, tris(trifluoroacetate)] = satisfied

Exam item: API: query returns whether the molecule falls strictly under 300 nM in IC50. Query: O=C(NCc1ccncc1)c1cc2cc(c1)Nc1nc(ncc1Cl)Nc1cccc(c1)CC2 [Example B11, bis(trifluoroacetate)]
Marked response: satisfied

----------
Biological target: human JAK2 (a.a. 828-1132) (Homo sapiens)
Construct: JAK2 (a.a. 828-1132); His tag (N); made in house; host or cells: insect cells (baculovirus)
Sequence (O60674 828-1132): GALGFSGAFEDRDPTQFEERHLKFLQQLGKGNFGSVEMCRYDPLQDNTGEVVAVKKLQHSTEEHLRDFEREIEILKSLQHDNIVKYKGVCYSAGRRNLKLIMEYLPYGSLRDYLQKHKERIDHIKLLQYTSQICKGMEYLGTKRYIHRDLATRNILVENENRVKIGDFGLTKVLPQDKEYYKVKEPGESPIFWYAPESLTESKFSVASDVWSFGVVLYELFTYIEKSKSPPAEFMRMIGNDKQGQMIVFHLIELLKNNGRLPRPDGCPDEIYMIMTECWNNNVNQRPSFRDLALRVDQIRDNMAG
Assay: In vitro JAK kinase assay (HTRF, phosphorylation of a biotinylated peptide), JAK2
Type: biochemical
Settings: method AA1 (30 μM ATP) or AA2 (1000 μM ATP), not stated per value
Structures can show the parent of a compound that is named as a salt.
Parameter IC50: see the listing below.

Would you please look over these solved cases?
• N#Cc1ccc(NC(=O)N2CCN(C(=O)COc3ccc4cc3CCc3cccc(c3)Nc3ncc(Cl)c(n3)N4)CC2)cc1 [Example A9, trifluoroacetate] = 19 nM
• Cc1ccccc1S(=O)(=O)N1CCC(CC(=O)Nc2ccc3cc2CCc2cncc(c2)Nc2ncc(Cl)c(n2)N3)CC1 [Example A225, bis(trifluoroacetate)] = 180 nM
• N#Cc1cccc(C(=O)N2CCC(CC(=O)Nc3ccc4cc3CCc3cncc(c3)Nc3ncc(Cl)c(n3)N4)CC2)c1 [Example A191, bis(trifluoroacetate)] = > 200 nM
• O=C(Nc1ccc2cc1CCc1cccc(c1)Nc1ncc(Cl)c(n1)N2)[C@@H]1CCCN1 [Example A110, bis(trifluoroacetate)] = 26 nM
• O=C(CN1CCNCC1)Nc1ccc2cc1CCc1cncc(c1)Nc1ncc(Cl)c(n1)N2 = 42 nM
• CCC(=O)N1CCC(CC(=O)Nc2ccc3cc2CCc2cncc(c2)Nc2ncc(Cl)c(n2)N3)CC1 [Example A104, bis(trifluoroacetate)] = 8.3 nM
• O=C(Nc1ccc2cc1CCc1cccc(c1)Nc1ncc(Cl)c(n1)N2)C1CCCN(C(=O)Nc2ccccc2)C1 (stereo not drawn) [Example A50, trifluoroacetate] = 6.5 nM
• N#Cc1cc(F)c(Cl)nc1N1CCC(CC(=O)Nc2ccc3cc2CCc2cncc(c2)Nc2ncc(Cl)c(n2)N3)CC1 [Example A241, tris(trifluoroacetate)] = > 400 nM
• Cn1ccnc1C(=O)N1CCC(CC(=O)Nc2ccc3cc2CCc2cncc(c2)Nc2ncc(Cl)c(n2)N3)CC1 [Example A164, bis(trifluoroacetate)] = 175 nM
• Cc1nc(C)c(S(=O)(=O)N2CCC(CC(=O)Nc3ccc4cc3CCc3cncc(c3)Nc3ncc(Cl)c(n3)N4)CC2)s1 [Example A232, bis(trifluoroacetate)] = 94 nM

In the following, a different compound is considered.
Exam item: Given O=C(CC1CCN(c2nncs2)CC1)Nc1ccc2cc1CCc1cncc(c1)Nc1ncc(Cl)c(n1)N2 [Example A174, tris(trifluoroacetate)] , state its recorded IC50.
Marked response: 124 nM

----------
Target: human JAK3 (a.a. 781-1124) (Homo sapiens)
Construct: JAK3 (a.a. 781-1124); His tag (N); made in house; host or cells: insect cells (baculovirus)
Sequence (P52333 781-1124): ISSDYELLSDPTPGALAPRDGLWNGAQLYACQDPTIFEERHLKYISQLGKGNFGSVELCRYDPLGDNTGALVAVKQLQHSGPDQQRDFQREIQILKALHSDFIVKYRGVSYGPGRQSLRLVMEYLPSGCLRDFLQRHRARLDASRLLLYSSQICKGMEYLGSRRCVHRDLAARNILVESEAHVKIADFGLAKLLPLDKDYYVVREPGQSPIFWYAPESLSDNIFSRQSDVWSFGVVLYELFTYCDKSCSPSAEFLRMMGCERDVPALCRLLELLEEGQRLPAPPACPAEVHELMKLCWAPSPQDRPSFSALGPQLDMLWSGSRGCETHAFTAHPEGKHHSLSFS
Assay: In vitro JAK kinase assay (HTRF, phosphorylation of a biotinylated peptide), JAK3
Type: biochemical
Conditions: method AA1 (3 μM ATP) or AA2 (1000 μM ATP), not stated per value
Where a name gives a salt, the structure may show the parent alone.
Parameter IC50: see the listing below.

• O=C(CC1CCN(S(=O)(=O)c2ccccc2Cl)CC1)Nc1ccc2cc1CCc1cncc(c1)Nc1ncc(Cl)c(n1)N2 [Example A223, bis(trifluoroacetate)] = > 400 nM
• N#Cc1cccc(C(=O)N2CCC(CC(=O)Nc3ccc4cc3CCc3cncc(c3)Nc3ncc(Cl)c(n3)N4)CC2)c1 [Example A191, bis(trifluoroacetate)] = > 200 nM
• O=C(Nc1ccc2cc1CCc1cccc(c1)Nc1ncc(Cl)c(n1)N2)C1CCN(C(=O)NC2CCCC2)CC1 [Example A61, trifluoroacetate] = 16 nM
• N#Cc1cccc(C(=O)N2CCC(CC(=O)Nc3ccc4cc3CCc3cccc(c3)Nc3ncc(Cl)c(n3)N4)CC2)c1 [Example A187, trifluoroacetate] = > 200 nM
• Cc1cc(C(=O)N2CCC(CC(=O)Nc3ccc4cc3CCc3cncc(c3)Nc3ncc(Cl)c(n3)N4)CC2)n[nH]1 [Example A163, bis(trifluoroacetate)] = > 100 nM

Exam item: Given O=C(CC1CCN(c2ccccn2)CC1)Nc1ccc2cc1CCc1cncc(c1)Nc1ncc(Cl)c(n1)N2 [Example A170, tris(trifluoroacetate)] , state its recorded IC50.
Marked response: > 1000 nM

Exam item: // next record CCS(=O)(=O)N1CCC(CC(=O)Nc2ccc3cc2CCc2cncc(c2)Nc2ncc(Cl)c(n2)N3)CC1 [Example A98, bis(trifluoroacetate)]
Marked response: 55 nM

Exam item: // next record Cc1cc(N2CCC(CC(=O)Nc3ccc4cc3CCc3cccc(c3)Nc3ncc(Cl)c(n3)N4)CC2)no1 [Example A248, trifluoroacetate]
Marked response: > 200 nM

Exam item: // next record Nc1nc(C(=O)N2CCC(CC(=O)Nc3ccc4cc3CCc3cncc(c3)Nc3ncc(Cl)c(n3)N4)CC2)cs1 [Example A217, tris(trifluoroacetate)]
Marked response: > 200 nM

Exam item: // next record Cc1nc(C)c(S(=O)(=O)N2CCC(CC(=O)Nc3ccc4cc3CCc3cncc(c3)Nc3ncc(Cl)c(n3)N4)CC2)s1 [Example A232, bis(trifluoroacetate)]
Marked response: > 400 nM

Exam item: // next record Cc1ccc(N2CCC(CC(=O)Nc3ccc4cc3CCc3cncc(c3)Nc3ncc(Cl)c(n3)N4)CC2)nn1 [Example A173, tris(trifluoroacetate)]
Marked response: > 1000 nM

Exam item: // next record O=C(CC1CCN(C(=O)c2cnccn2)CC1)Nc1ccc2cc1CCc1cncc(c1)Nc1ncc(Cl)c(n1)N2 [Example A102, tris(trifluoroacetate)]
Marked response: 170 nM

Exam item: // next record Cc1cc(C(=O)N2CCN(CC(=O)Nc3ccc4cc3CCc3cccc(c3)Nc3ncc(Cl)c(n3)N4)CC2)no1 [Example A123, bis(trifluoroacetate)]
Marked response: 68 nM

Exam item: // next record O=C(CC1CCN(c2nc3cccnc3o2)CC1)Nc1ccc2cc1CCc1cccc(c1)Nc1ncc(Cl)c(n1)N2 [Example A126, bis(trifluoroacetate)]
Marked response: 34 nM

----------
Biological target: human JAK1 (a.a. 837-1142) (Homo sapiens, UniProt P23458)
Construct: human JAK1 (a.a. 837-1142); His tag (N); made in house; host or cells: insect cells (baculovirus)
Sequence (P23458 849-1154): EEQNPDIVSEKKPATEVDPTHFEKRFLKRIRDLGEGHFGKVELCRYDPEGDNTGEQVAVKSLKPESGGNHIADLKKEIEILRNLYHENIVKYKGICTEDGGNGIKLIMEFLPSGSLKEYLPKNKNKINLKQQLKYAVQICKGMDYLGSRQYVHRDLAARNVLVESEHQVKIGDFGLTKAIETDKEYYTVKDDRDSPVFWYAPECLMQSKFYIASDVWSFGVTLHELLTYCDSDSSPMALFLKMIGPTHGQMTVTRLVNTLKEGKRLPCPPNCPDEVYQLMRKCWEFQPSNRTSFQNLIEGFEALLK
Test: In vitro JAK kinase assay (HTRF, phosphorylation of a biotinylated peptide), JAK1
Assay type: biochemical
Conditions: method AA1 (90 μM ATP) or AA2 (1000 μM ATP), not stated per value; read-out: JAK1 IC50
Where a name gives a salt, the structure may show the parent alone.
quantity name: IC50 (nM)
Write the number in nM without appending the unit.

Would you please look over these solved cases?
- CC(C)(C)OC(=O)N1CCC(C(=O)Nc2ccc3cc2CCc2cccc(c2)Nc2ncc(Cl)c(n2)N3)CC1 [Example A27, trifluoroacetate]: 61
- O=C(CC1CCN(C(=O)c2ccncc2)CC1)Nc1ccc2cc1CCc1cncc(c1)Nc1ncc(Cl)c(n1)N2 [Example A189, tris(trifluoroacetate)]: 116
- NC(=O)COc1ccc2cc1CCc1cccc(c1)Nc1ncc(Cl)c(n1)N2 [Example A15, trifluoroacetate]: 2.9

Exam item: Given O=C(CC1CCN(c2cnccn2)CC1)Nc1ccc2cc1CCc1cncc(c1)Nc1ncc(Cl)c(n1)N2 [Example A171, tris(trifluoroacetate)] , state its recorded IC50.
Marked response: 12

Exam item: // next record CNC(=O)N1CCC(CC(=O)Nc2ccc3cc2CCc2cncc(c2)Nc2ncc(Cl)c(n2)N3)C1 (stereo not shown) [Example A93, bis(trifluoroacetate)]
Marked response: 22

Exam item: // next record O=C(Nc1ccc2cc1CCc1cccc(c1)Nc1ncc(Cl)c(n1)N2)C1CCN(C(=O)c2ccc3c(c2)OCO3)CC1 [Example A31, trifluoroacetate]
Marked response: 42

----------
Biological target: UniProt P29597
Test: TYK2 kinase inhibition (Table A1)
Assay type: biochemical
Conditions: Table B1
Where a name gives a salt, the structure may show the parent alone.
Parameter log10(IC50): see the listing below.
Please be aware that the numbers have been log10-transformed from IC50 in nM.

Would you please look over these solved cases?
* O=C(Nc1ccc2cc1CCc1cccc(c1)Nc1ncc(Cl)c(n1)N2)N[C@H]1CCN(Cc2ccccc2)C1 [Example B173, bis(trifluoroacetate)] | 1.74
* CC(C)(C)OC(=O)N1CC[C@@H](NC(=O)Nc2ccc3cc2CCc2cccc(c2)Nc2ncc(Cl)c(n2)N3)C1 | 1.79
* O=C(Nc1ccc2cc1CCc1cncc(c1)Nc1ncc(Cl)c(n1)N2)N1CCN(c2ccccn2)CC1 [Example B289, tris(trifluoroacetate)] | 1.93
* O=C(NCCN1CCCC1=O)Nc1ccc2cc1CCc1cccc(c1)Nc1ncc(Cl)c(n1)N2 [Example B257, trifluoroacetate] | 1.26
* Clc1cnc2nc1Nc1ccc(Nc3nc4cccnc4o3)c(c1)CCc1cccc(c1)N2 [Example B333, tris(trifluoroacetate)] | 0.08
* CC(C)NC(=O)Nc1ccc2cc1CCc1cccc(c1)Nc1ncc(Cl)c(n1)N2 [Example B116, trifluoroacetate] | 1.00

Exam item: Given O=C(Nc1ccc2cc1CCc1cccc(c1)Nc1ncc(Cl)c(n1)N2)c1ccc2occc2c1 [Example B79, trifluoroacetate] , state its recorded log10(IC50).
Marked response: 0.23

Exam item: // next record O=S(=O)(Nc1ccc2cc1CCc1cccc(c1)Nc1ncc(Cl)c(n1)N2)c1cccc(Cl)c1 [Example B138, trifluoroacetate]
Marked response: -0.46

Exam item: // next record O=C(Nc1cc2cc(c1)Nc1nc(ncc1Cl)Nc1cccc(c1)CC2)c1ccno1 [Example B206, trifluoroacetate]
Marked response: 1.66

The measurements presented in this section are drawn from patent US8871753B2.
